Origin of values: the supplement of paper PMC9112550

- Tested on: Escherichia coli TOP10;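 note: peptides expressed intracellularly from a pBAD plasmid library in pooled LB shake-flask culture, induced with 0.3% L-arabinose, DNA abundance read by NGS, three biological replicates, DESeq2 with apeglm shrinkage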
- protocol: shrunken log2 fold change of peptide-encoding DNA abundance (4.5 h post-induction vs induction); higher = less antimicrobial activity (less host growth inhibition)
- assay conditions: time post-induction: 4.5 h; library: site-saturation at positions 5, 18, 19, 20
Binning scheme for shrunken log2 fold change: band A (below -0.05), band B (-0.05 to below 0.1), band C (0.1 or more)

sequence input: RRIRQRPPRLPRPRPRPCSEPRP
label value: band A
--
sequence input: RRIRLRPPRLPRPRPRPGEDPRP
label value: band C
--
sequence input: RRIRVRPPRLPRPRPRPRKQPRP
label value: band C
--
sequence input: RRIRKRPPRLPRPRPRPLRCPRP
label value: band C

Bin? "RRIRTRPPRLPRPRPRPMKFPRP" band A

Quick check: band for "RRIRWRPPRLPRPRPRPYGAPRP" band A

Band for "RRIRVRPPRLPRPRPRPYKQPRP" ? band B

Record "RRIRWRPPRLPRPRPRPEERPRP" — which class? band B

Input "RRIRERPPRLPRPRPRPTPSPRP" ; output its category band C

Which bin, given its shrunken log2 fold change, does "RRIRWRPPRLPRPRPRPNLKPRP" occupy? band A

In plain terms, what class is "RRIRMRPPRLPRPRPRPFACPRP" ? band A

Categorize the following entry: "RRIRWRPPRLPRPRPRPCWFPRP" band B

Form field 'band' for "RRIRPRPPRLPRPRPRPEHSPRP" band B

Assign a bin to "RRIRDRPPRLPRPRPRPNCQPRP" band C
